Reference source for all entries: patent US20240368153A1

Quick record: Kd, PRMT5•MTA (biotinylated PRMT5-MEP50) (Homo sapiens (Human), UniProt O14744).
Respond with the bare value in nM.

Solved cases below.
CC(=O)c1c(CNC(=O)c2ccccc2)[nH]c2cc(C)c(N)nc12    774000
Cc1cc(N)nc2cc(CNC(=O)c3ccccc3)cnc12 [Example 8-1]    5
Cc1cc(N)nc2cc(Cc3cnn(C)c3)cnc12    137

Challenge: Kd lookup needed for Nc1nc2cc(NC(=O)c3ccccc3)[nH]c2cc1Br , thanks.
Response given: 2540

----------
molecular target: PRMT5/MEP50 complex (Homo sapiens (Human)); experiment: PRMT5:MEP50 FlashPlate Assay; assay type: biochemical; details: histone H4 peptide, absence of MTA, read-out: IC50
Sequence (O14744 whole entry): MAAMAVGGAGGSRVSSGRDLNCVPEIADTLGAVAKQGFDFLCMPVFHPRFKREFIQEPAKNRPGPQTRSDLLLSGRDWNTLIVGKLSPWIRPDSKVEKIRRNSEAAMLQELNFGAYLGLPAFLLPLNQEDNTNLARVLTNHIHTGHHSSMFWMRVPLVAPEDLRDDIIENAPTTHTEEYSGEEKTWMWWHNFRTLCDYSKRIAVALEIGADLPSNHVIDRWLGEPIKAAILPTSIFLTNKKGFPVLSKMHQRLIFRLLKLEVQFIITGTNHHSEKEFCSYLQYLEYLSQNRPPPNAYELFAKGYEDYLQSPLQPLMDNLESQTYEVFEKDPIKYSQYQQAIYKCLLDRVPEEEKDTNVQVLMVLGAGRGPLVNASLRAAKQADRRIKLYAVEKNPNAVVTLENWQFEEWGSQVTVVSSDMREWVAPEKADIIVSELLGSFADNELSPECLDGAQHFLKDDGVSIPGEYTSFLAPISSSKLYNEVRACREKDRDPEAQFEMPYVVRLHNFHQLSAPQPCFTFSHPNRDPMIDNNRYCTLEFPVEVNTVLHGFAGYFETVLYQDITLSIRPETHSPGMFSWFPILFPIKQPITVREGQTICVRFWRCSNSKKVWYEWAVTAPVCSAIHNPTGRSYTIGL
Sequence (Q9BQA1 whole entry partner): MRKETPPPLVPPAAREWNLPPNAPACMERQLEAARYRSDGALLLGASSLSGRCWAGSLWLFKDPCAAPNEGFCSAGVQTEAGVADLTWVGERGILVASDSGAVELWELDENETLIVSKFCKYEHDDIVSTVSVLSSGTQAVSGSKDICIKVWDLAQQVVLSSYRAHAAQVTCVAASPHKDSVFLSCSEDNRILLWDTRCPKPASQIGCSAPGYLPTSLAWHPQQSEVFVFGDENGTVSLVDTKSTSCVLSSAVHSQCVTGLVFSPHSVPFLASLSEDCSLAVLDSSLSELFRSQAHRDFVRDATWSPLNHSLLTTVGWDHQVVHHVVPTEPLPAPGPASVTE
property.label: IC50 (µM)
Respond with the bare value in µM.

Solved cases below.
Cc1cc2[nH]c(N3CCNC3=O)cc2nc1N    60.3
Cc1cc2[nH]c(NC(=O)c3ccccc3)cc2nc1N    60.2
Cc1cc(N)nc2cc(CNC(=O)c3cc(NC4CC4)ncn3)cnc12    18.2
Cc1cc(N)nc2cc(Cc3cnn(C)c3)cnc12    243
Cc1cc(N)nc2cc(CNC(=O)c3ccccc3)cnc12 [Example 8-1]    4.29
Nc1nc2cc[nH]c2cc1C1CC1    232

As a next step, examine the molecule that follows.
Challenge: Request - read-out IC50 | tested on PRMT5/MEP50 complex (Homo sapiens (Human)) | molecule Nc1nc2cc[nH]c2cc1C(F)(F)F
Response given: 431
